Each recorded value in this set is attributed to patent EP0097439A2.

# Procedure summary: Plasma levels of 9-deoxo-16,16-dimethyl-9-methylene-PGE2 by radioimmunoassay after insertion of a suppository
# Format: in vivo, Rhesus monkeys (Macaca mulatta)
# Protocol conditions: rhesus monkey, plasma, 30 mg, plasma; Monkey #13; 3 Hours; 30 mg Free Acid in H15 Plus 2% CSD + 10% Triacetin Suppositories; read-out: Drug Levels
Observation type: concentration at 3 h (ng/mL)
Unit ng/mL implied. Number only.

Prompt: Look up and state reported concentration at 3 h for C=C1C[C@@H](O)[C@H](/C=C/[C@@H](O)C(C)(C)CCCC)[C@H]1C/C=C\CCCC(=O)O [Free Acid, 9-deoxo-16,16-dimethyl-9-methylene-PGE2]
Response: 15.1

====

# Procedure summary: Plasma levels of 9-deoxo-16,16-dimethyl-9-methylene-PGE2 by radioimmunoassay after insertion of a suppository
# Type: in vivo, Rhesus monkeys (Macaca mulatta)
# Protocol conditions: rhesus monkey, plasma, 30 mg, plasma; Monkey #16; 6 Hours; 30 mg Potassium Salt in H15 Plus 2% CSD + 10% Triacetin Suppositories; read-out: Drug Levels
Counter-ions that a name gives are not always drawn.
Observation type: concentration at 6 h
# output: number + unit

Prompt: Look up and state reported concentration at 6 h for C=C1C[C@@H](O)[C@H](/C=C/[C@@H](O)C(C)(C)CCCC)[C@H]1C/C=C\CCCC(=O)O [Potassium Salt]
Response: 0.0345 µg/mL

====

# Procedure summary: Plasma levels of 9-deoxo-16,16-dimethyl-9-methylene-PGE2 by radioimmunoassay after insertion of a suppository
# Format: in vivo, Rhesus monkeys (Macaca mulatta)
# Protocol conditions: rhesus monkey, plasma, 30 mg, plasma; Monkey #15 (pregnant animal with uterine recording); 4 Hours; 30 mg Free Acid in H15 Plus 2% CSD + 10% Triacetin Suppositories; read-out: Drug Levels
Observation type: concentration at 4 h (ng/mL)
Unit ng/mL implied. Number only.

Prompt: Look up and state reported concentration at 4 h for C=C1C[C@@H](O)[C@H](/C=C/[C@@H](O)C(C)(C)CCCC)[C@H]1C/C=C\CCCC(=O)O [Free Acid, 9-deoxo-16,16-dimethyl-9-methylene-PGE2]
Response: 22.1

====

# Procedure summary: Plasma levels of 9-deoxo-16,16-dimethyl-9-methylene-PGE2 by radioimmunoassay after insertion of a suppository
# Type: in vivo, Rhesus monkeys (Macaca mulatta)
# Protocol conditions: rhesus monkey, plasma, 30 mg, plasma; Monkey #13; 1.5 Hours; 30 mg Free Acid in H15 Plus 2% CSD + 10% Triacetin Suppositories; read-out: Drug Levels
# Description: A. Midtrimester pregnant female Rhesus monkeys (Macaca mulatta) are used. […] D. The plasma levels of 9-deoxo-16,16-d1methy1-9-methy1ene-PGE2 in monkeys treated with 6 formulations containing either 9-deoxo-16,16-dimethyl-9-methylene-PGE2 free acid or potassium salt are shown in Tables 1-6. In general, higher blood levels are measured in pregnant Rhesus monkeys than in non-pregnant monkeys.
Observation type: concentration at 1.5 h (ng/mL)
Unit ng/mL implied. Number only.

Prompt: Look up and state reported concentration at 1.5 h for C=C1C[C@@H](O)[C@H](/C=C/[C@@H](O)C(C)(C)CCCC)[C@H]1C/C=C\CCCC(=O)O [Free Acid, 9-deoxo-16,16-dimethyl-9-methylene-PGE2]
Response: 3.09

====

# Procedure summary: Plasma levels of 9-deoxo-16,16-dimethyl-9-methylene-PGE2 by radioimmunoassay after insertion of a suppository
# Format: in vivo, Rhesus monkeys (Macaca mulatta)
# Protocol conditions: rhesus monkey, plasma, 30 mg, plasma; Monkey #13; 24 Hours; 30 mg Free Acid in H15 Plus 2% CSD + 10% Triacetin Suppositories; read-out: Drug Levels
Observation type: concentration at 24 h (ng/mL)
Unit ng/mL implied. Number only.

Prompt: Look up and state reported concentration at 24 h for C=C1C[C@@H](O)[C@H](/C=C/[C@@H](O)C(C)(C)CCCC)[C@H]1C/C=C\CCCC(=O)O [Free Acid, 9-deoxo-16,16-dimethyl-9-methylene-PGE2]
Response: 26

====

# Procedure summary: Plasma levels of 9-deoxo-16,16-dimethyl-9-methylene-PGE2 by radioimmunoassay after insertion of a suppository
# Assay type: in vivo, Rhesus monkeys (Macaca mulatta)
# Protocol conditions: rhesus monkey, plasma, 30 mg, plasma; Monkey #6 (pregnant animal with uterine recording); 4 Hours; 30 mg Potassium Salt in H15 Suppositories; read-out: Drug Levels
# Protocol: A. Midtrimester pregnant female Rhesus monkeys (Macaca mulatta) are used. […] D. The plasma levels of 9-deoxo-16,16-d1methy1-9-methy1ene-PGE2 in monkeys treated with 6 formulations containing either 9-deoxo-16,16-dimethyl-9-methylene-PGE2 free acid or potassium salt are shown in Tables 1-6. In general, higher blood levels are measured in pregnant Rhesus monkeys than in non-pregnant monkeys.
Counter-ions that a name gives are not always drawn.
Observation type: concentration at 4 h (ng/mL)
Unit ng/mL implied. Number only.

Prompt: Look up and state reported concentration at 4 h for C=C1C[C@@H](O)[C@H](/C=C/[C@@H](O)C(C)(C)CCCC)[C@H]1C/C=C\CCCC(=O)O [Potassium Salt]
Response: 42.8

====

# Procedure summary: Plasma levels of 9-deoxo-16,16-dimethyl-9-methylene-PGE2 by radioimmunoassay after insertion of a suppository
# Format: in vivo, Rhesus monkeys (Macaca mulatta)
# Protocol conditions: rhesus monkey, plasma, 30 mg, plasma; Monkey #10; 0.25 Hours; 30 mg Potassium Salt in H15 Plus 2% CSD Suppositories; read-out: Drug Levels
Structures can show the parent of a compound that is named as a salt.
Observation type: concentration at 0.25 h (ng/mL)
Unit ng/mL implied. Number only.

Prompt: Look up and state reported concentration at 0.25 h for C=C1C[C@@H](O)[C@H](/C=C/[C@@H](O)C(C)(C)CCCC)[C@H]1C/C=C\CCCC(=O)O [Potassium Salt]
Response: 20.4

====

# Procedure summary: Plasma levels of 9-deoxo-16,16-dimethyl-9-methylene-PGE2 by radioimmunoassay after insertion of a suppository
# Format: in vivo, Rhesus monkeys (Macaca mulatta)
# Protocol conditions: rhesus monkey, plasma, 30 mg, plasma; Monkey #3 (pregnant animal with uterine recording); 0.25 Hours; 30 mg Free Acid in H15 Suppositories; read-out: Drug Levels
Observation type: concentration at 0.25 h (ng/mL)
Unit ng/mL implied. Number only.

Prompt: Look up and state reported concentration at 0.25 h for C=C1C[C@@H](O)[C@H](/C=C/[C@@H](O)C(C)(C)CCCC)[C@H]1C/C=C\CCCC(=O)O [Free Acid, 9-deoxo-16,16-dimethyl-9-methylene-PGE2]
Response: 142

====

# Procedure summary: Plasma levels of 9-deoxo-16,16-dimethyl-9-methylene-PGE2 by radioimmunoassay after insertion of a suppository
# Format: in vivo, Rhesus monkeys (Macaca mulatta)
# Protocol conditions: rhesus monkey, plasma, 30 mg, plasma; Monkey #9 (pregnant animal with uterine recording); 1.5 Hours; 30 mg Free Acid in H15 Plus 2% CSD Suppositories; read-out: Drug Levels
Observation type: concentration at 1.5 h (ng/mL)
Unit ng/mL implied. Number only.

Prompt: Look up and state reported concentration at 1.5 h for C=C1C[C@@H](O)[C@H](/C=C/[C@@H](O)C(C)(C)CCCC)[C@H]1C/C=C\CCCC(=O)O [Free Acid, 9-deoxo-16,16-dimethyl-9-methylene-PGE2]
Response: 62.8

====

# Procedure summary: Plasma levels of 9-deoxo-16,16-dimethyl-9-methylene-PGE2 by radioimmunoassay after insertion of a suppository
# Format: in vivo, Rhesus monkeys (Macaca mulatta)
# Protocol conditions: rhesus monkey, plasma, 30 mg, plasma; Monkey #2; 6.0 Hours; 30 mg Free Acid in H15 Suppositories; read-out: Drug Levels
Observation type: concentration at 6 h (ng/mL)
Unit ng/mL implied. Number only.

Prompt: Look up and state reported concentration at 6 h for C=C1C[C@@H](O)[C@H](/C=C/[C@@H](O)C(C)(C)CCCC)[C@H]1C/C=C\CCCC(=O)O [Free Acid, 9-deoxo-16,16-dimethyl-9-methylene-PGE2]
Response: 17.3

====

# Procedure summary: Plasma levels of 9-deoxo-16,16-dimethyl-9-methylene-PGE2 by radioimmunoassay after insertion of a suppository
# Format: in vivo, Rhesus monkeys (Macaca mulatta)
# Protocol conditions: rhesus monkey, plasma, 30 mg, plasma; Monkey #14; 6 Hours; 30 mg Free Acid in H15 Plus 2% CSD + 10% Triacetin Suppositories; read-out: Drug Levels
Observation type: concentration at 6 h (ng/mL)
Unit ng/mL implied. Number only.

Prompt: Look up and state reported concentration at 6 h for C=C1C[C@@H](O)[C@H](/C=C/[C@@H](O)C(C)(C)CCCC)[C@H]1C/C=C\CCCC(=O)O [Free Acid, 9-deoxo-16,16-dimethyl-9-methylene-PGE2]
Response: 16.2

====

# Procedure summary: Plasma levels of 9-deoxo-16,16-dimethyl-9-methylene-PGE2 by radioimmunoassay after insertion of a suppository
# Assay type: in vivo, Rhesus monkeys (Macaca mulatta)
# Protocol conditions: rhesus monkey, plasma, 30 mg, plasma; Monkey #2; 2.0 Hours; 30 mg Free Acid in H15 Suppositories; read-out: Drug Levels
Observation type: concentration at 2 h (ng/mL)
Unit ng/mL implied. Number only.

Prompt: Look up and state reported concentration at 2 h for C=C1C[C@@H](O)[C@H](/C=C/[C@@H](O)C(C)(C)CCCC)[C@H]1C/C=C\CCCC(=O)O [Free Acid, 9-deoxo-16,16-dimethyl-9-methylene-PGE2]
Response: 5.56
